Listed next: entries and their corresponding inhibition at 10 µM.
Biological target: human Sirt5 (Homo sapiens, UniProt Q9NXA8)
Construct: Recombinant human Sirt5_37−310 was purchased readily in Tris Buffer; purchased Enzo Life Sciences (NY, USA)
Sequence (Q9NXA8 37-310): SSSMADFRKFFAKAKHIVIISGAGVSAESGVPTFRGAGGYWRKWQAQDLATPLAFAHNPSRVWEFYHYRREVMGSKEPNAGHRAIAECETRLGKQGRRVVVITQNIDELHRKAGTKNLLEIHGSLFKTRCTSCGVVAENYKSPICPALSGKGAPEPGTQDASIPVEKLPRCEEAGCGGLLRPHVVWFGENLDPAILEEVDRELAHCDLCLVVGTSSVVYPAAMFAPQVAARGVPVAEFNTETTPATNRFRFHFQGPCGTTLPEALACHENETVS
Test: Homogeneous ZKsA-based fluorescence assay for Sirt5
Format: biochemical
Details: inhibition tested @ 10 μM
Description: Recombinant human Sirt5_37−310 was purchased readily in Tris Buffer [25 mM Tris, 100 mM NaCl, 5 mM DTT, 10% glycerol (v/v)] from Enzo Life Sciences (NY, USA). Human Sirt3_118−395 was expressed and purified as described previously ([54]). […] Identity as well as purity were verified by SDS-PAGE ([55]) and protein concentration was determined by the bicinchoninic acid (BCA) method, using bovine serum albumin (BSA) as a standard ([56]). […]

{"molecule": "N#CSc1cccc(NS(=O)(=O)c2ccc3c(c2)OCCO3)c1", "assay_target": "human Sirt5 (Homo sapiens, UniProt Q9NXA8)", "inhibition at 10 µM": "< 10%"}
{"molecule": "CCCCNC(=O)Nc1cccc(SC#N)c1", "assay_target": "human Sirt5 (Homo sapiens, UniProt Q9NXA8)", "inhibition at 10 µM": "< 10%"}
{"molecule": "N#CSc1cc(SC#N)c(N)nc1N [PR-619, reference compound]", "assay_target": "human Sirt5 (Homo sapiens, UniProt Q9NXA8)", "inhibition at 10 µM": "28%"}

human Sirt5 (Homo sapiens, UniProt Q9NXA8) assay, molecule N#CSc1cccc(NC(=O)[C@H]2CC=CC[C@H]2C(=O)O)c1 , recorded inhibition at 10 µM = < 10%

Reported human Sirt5 (Homo sapiens, UniProt Q9NXA8) inhibition at 10 µM for item COc1ccc(SC#N)cc1OCC(=O)N(CCC#N)CCC#N was < 10%

====

Target: human Sirt2 (Homo sapiens)
Construct: made in house; host or cells: E. coli BL21 Star (DE3)
Sequence (Q8IXJ6 56-356): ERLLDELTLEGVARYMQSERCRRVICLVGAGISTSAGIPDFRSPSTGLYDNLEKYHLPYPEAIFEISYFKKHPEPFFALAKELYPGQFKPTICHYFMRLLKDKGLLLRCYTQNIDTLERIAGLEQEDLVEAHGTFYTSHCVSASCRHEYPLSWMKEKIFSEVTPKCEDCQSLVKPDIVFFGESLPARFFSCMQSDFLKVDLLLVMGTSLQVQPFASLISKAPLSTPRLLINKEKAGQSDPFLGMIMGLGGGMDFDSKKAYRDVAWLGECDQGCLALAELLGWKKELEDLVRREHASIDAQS
Test: Homogeneous ZMAL-based fluorescence assay, Sirt2
Type: biochemical
Conditions: 4th round
reported_endpoint: inhibition at 50 µM

N#CSc1cccc(NS(=O)(=O)c2ccc3c(c2)OCCO3)c1 [S1th 13] has a reported inhibition at 50 µM of < 10%

====

Biological target: human Sirt2 (Homo sapiens, UniProt Q8IXJ6)
Construct: made in house; host or cells: E. coli BL21 Star (DE3)
Experiment: Homogeneous ZMAL-based fluorescence assay, Sirt2
Assay type: biochemical
Details: 4th round
Method: Recombinant human Sirt5_37−310 was purchased readily in Tris Buffer [25 mM Tris, 100 mM NaCl, 5 mM DTT, 10% glycerol (v/v)] from Enzo Life Sciences (NY, USA). Human Sirt3_118−395 was expressed and purified as described previously ([54]). […] Identity as well as purity were verified by SDS-PAGE ([55]) and protein concentration was determined by the bicinchoninic acid (BCA) method, using bovine serum albumin (BSA) as a standard ([56]). […]
Entries and their inhibition at 50 µM

{"compound": "N#CSc1cc(SC#N)c(N)nc1N [PR-619, reference compound]", "assay_target": "human Sirt2 (Homo sapiens, UniProt Q8IXJ6)", "observed_measurement": "36%"}
{"compound": "N#CSc1cccc(NC(=O)[C@H]2CC=CC[C@H]2C(=O)O)c1 [S1th 10]", "assay_target": "human Sirt2 (Homo sapiens, UniProt Q8IXJ6)", "observed_measurement": "< 10%"}

CCCCNC(=O)Nc1cccc(SC#N)c1 [S1th 11] has a reported inhibition at 50 µM of < 10%
